- System: ICS
- Method Summary: qHTS profiling for inhibitors of Plasmodium falciparum proliferation (AID 504749); further: nearly all actives have a fitted effect of over 60% in size
- Condition Context: P. falciparum in erythrocytes, SYBR Green DNA, 72 h; series mostly up to 28.7 µM
Inconclusive results are not listed. Activity calls are given as the source filed them. The call rests on the fitted dose curve; in most records, active means well fitted inhibition curve with a large enough effect; inconclusive means small, poorly fitted or top-dose-only effect; inactive means flat fitted curve, though single readings scatter.
Labels: yes (active), no (inactive)

Compound: CCC1(CC)C(=O)C=CNC1=O
Category Label: no
--
Compound: C[C@]12CC[C@@H]3c4ccc(OC(=O)N(CCCl)CCCl)cc4CC[C@H]3[C@@H]1CC[C@@H]2O
Category Label: no
--
Compound: Oc1ccc(Cl)cc1
Category Label: no
--
Compound: O=C1CN=C(c2ccccc2)c2cc([N+](=O)[O-])ccc2N1
Category Label: no
--
Compound: CC(C)(C)NCC(O)c1cc(Cl)c(N)c(C(F)(F)F)c1 (stereo unspecified)
Category Label: yes
--
Compound: Nc1nc(N)nc(NC2CC2)n1
Category Label: no

---

- Method Summary: qHTS assay for small molecule antagonists of peroxisome proliferator-activated receptor delta signaling (AID 588535);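 further: cells co-treated with a PPAR-delta agonist as stimulator during compound exposure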
- Condition Context: HEK293T PPARd-UAS-bla, beta-lactamase FRET ratio, 18 h; 460 nm channel
- Source text: NIH Chemical Genomics Center [NCGC] U.S. Environmental Protection Agency [EPA] National Institutes of Environmental Health Sciences [NIEHS] National Toxicology Program [NTP] NCGC Assay Overview The Peroxisome proliferator-activated receptors (PPARs) are lipid-activated transcription factors of the nuclear receptor superfamily with three distinct subtypes namely PPAR alpha, PPAR delta (also called PPAR beta) and PPAR gamma. […]
Results filed as inconclusive are left out.
Reported Endpoint: max response (%)

Compound: COP(=S)(OC)Oc1cc(Cl)c(Cl)cc1Cl
Readout Number: 28.8
--
Compound: CCOC(=O)CC(SP(=S)(OC)OC)C(=O)OCC (configuration not stated)
Readout Number: 0.513
--
Compound: Nc1ccc([As](=O)(O)O)cc1
Readout Number: -12.8
--
Compound: Oc1ccc(Cl)cc1
Readout Number: -18.6
--
Compound: COP(=S)(OC)Oc1ccc(SC)c(C)c1
Readout Number: 3.56
--
Compound: Nc1nc(N)nc(NC2CC2)n1
Readout Number: 47
--
Compound: C[C@]1(O)CC[C@H]2[C@@H]3CCC4=CC(=O)CC[C@]4(C)[C@@]3(F)[C@@H](O)C[C@@]21C
Readout Number: -0.651

---

- System: CP238
- Method Summary: qHTS profiling for inhibitors of Plasmodium falciparum proliferation (AID 504749); further: nearly all actives have a fitted effect of over 60% in size
- Condition Context: P. falciparum in erythrocytes, SYBR Green DNA, 72 h; series mostly up to 28.7 µM
Inconclusive results are not listed. Activity calls are given as the source filed them. Calls follow the shape of the dose curve; as a rule, active = well fitted inhibition curve with a large enough effect; inconclusive = small, poorly fitted or top-dose-only effect; inactive = flat fitted curve, though single readings scatter.
Labels: active, inactive

Compound: Nc1nc(N)nc(NC2CC2)n1
Test Target: CP238
Category Label: inactive
--
Compound: CN1C(=O)C(O)N=C(c2ccccc2)c2cc(Cl)ccc21 (stereo not given)
Test Target: CP238
Category Label: inactive
--
Compound: COP(=S)(OC)SCN1C(=O)c2ccccc2C1=O
Test Target: CP238
Category Label: inactive
--
Compound: C[C@]12CCC(=O)C=C1CC[C@@H]1[C@@H]2CC[C@]2(C)C(=O)CC[C@@H]12
Test Target: CP238
Category Label: inactive
--
Compound: Nc1ccc([As](=O)(O)O)cc1
Test Target: CP238
Category Label: inactive
--
Compound: NC(=O)CS(=O)C(c1ccccc1)c1ccccc1 (stereo not given)
Test Target: CP238
Category Label: inactive
--
Compound: CN1C(=O)CCS(=O)(=O)C1c1ccc(Cl)cc1 (stereo not given)
Test Target: CP238
Category Label: inactive
--
Compound: CN1C[C@H](C(=O)N[C@]2(C)O[C@@]3(O)[C@@H]4CCCN4C(=O)[C@H](Cc4ccccc4)N3C2=O)C=C2c3cccc4[nH]cc(c34)C[C@H]21
Test Target: CP238
Category Label: active
--
Compound: COP(=S)(OC)Oc1ccc(S(=O)(=O)N(C)C)cc1
Test Target: CP238
Category Label: inactive
--
Compound: CN1C(=O)NC(=O)C(C)(C2=CCCCC2)C1=O (stereo not given)
Test Target: CP238
Category Label: inactive

---

- Method Summary: Drug repurposing screens with cells derived from glioblastoma tumor samples (AID 1345199); further: on the % scale 0 is the no-effect control and ±100 the full control effect; nearly all actives have a fitted effect of over 40% in size
- Condition Context: GBM patient neurospheres viability, ATP luminescence, 48 h; at 21.2 µM (top of the series); tumour line B
Inconclusive results are not listed.
Each entry below lists one item and its recorded activity, negative = cell killing value.
Reported Endpoint: activity, negative = cell killing (%)

Item Smiles: O=c1oc2ccccc2c(O)c1Cc1c(O)c2ccccc2oc1=O
Reported Endpoint: activity, negative = cell killing
Readout Number: -21.7

Item Smiles: C[C@@H](N)[C@@H](O)c1ccccc1
Reported Endpoint: activity, negative = cell killing
Readout Number: -14.5

Item Smiles: CNC(C)(C)Cc1ccccc1
Reported Endpoint: activity, negative = cell killing
Readout Number: -7.53

Item Smiles: CC(=O)OCC1=C(C(=O)O)N2C(=O)[C@@H](N)[C@H]2SC1
Reported Endpoint: activity, negative = cell killing
Readout Number: -6.05

---

- Tested on: HEK293
- Method Summary: Cytotoxic Profiling of Annotated Libraries Using Quantitative High-Throughput Screening (AID 1296008); further: nearly all actives have a fitted effect of over 60% in size
- Condition Context: Five cell lines viability, CellTiter-Glo ATP luminescence, 48-72 h
Results filed as inconclusive are left out. Activity calls are given as the source filed them. The call rests on the fitted dose curve; in most records, active means well fitted inhibition curve with a large enough effect; inconclusive means small, poorly fitted or top-dose-only effect; inactive means flat fitted curve, though single readings scatter.
Labels: active, inactive

Molecule: CCN(CC)C(=O)[C@@H]1C=C2c3cccc4[nH]cc(c34)C[C@H]2N(C)C1
Category Label: active
--
Molecule: C[C@]12CC[C@@H]3c4ccc(OC(=O)N(CCCl)CCCl)cc4CC[C@H]3[C@@H]1CC[C@@H]2O
Category Label: active
--
Molecule: CCOC(=O)CC(SP(=S)(OC)OC)C(=O)OCC (stereo unspecified)
Category Label: inactive
--
Molecule: Clc1ccccc1N1CCNCC1
Category Label: inactive
--
Molecule: O=C1c2ccccc2C(=O)c2ccccc21
Category Label: inactive
--
Molecule: CCC1(c2ccc(N)cc2)CCC(=O)NC1=O (stereo unspecified)
Category Label: inactive

---

- Method Summary: Cell Viability - LYMP2-001 (AID 921);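 further: cells exposed to compound for 24 h at 37 °C; 0% = DMSO only and full inhibition = tetraoctylammonium bromide control wells; nearly all actives have a fitted effect of over 70% in size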
- Condition Context: LYMP2-001 lymphoblastoid cell viability; series mostly up to 92.2 µM
- Description: NIH Chemical Genomics Center [NCGC] NIH Molecular Libraries Screening Centers Network [MLSCN] National Institutes of Environmental Health Sciences [NIEHS] National Toxicology Program [NTP] We have developed a 1536-well cell-based assay for quantitative high throughput screening (qHTS) against a number of cell lines to determine in vitro cytotoxicity of small molecules. […] 8. Detection; Luminescence; Viewlux plate reader […]
Inconclusive results are not listed. Active and inactive are the calls of the source. The call rests on the fitted dose curve; in most records, active means well fitted cell-killing curve with a large enough effect; inconclusive means small, poorly fitted or top-dose-only effect; inactive means no such curve, though single readings can be large or run the other way.
Reported Endpoint: outcome

Compound: Clc1ccc(C(c2ccc(Cl)cc2)C(Cl)(Cl)Cl)cc1
Reported Endpoint: outcome
Result: inactive
//
Compound: CCCC(C)(COC(N)=O)COC(N)=O
Reported Endpoint: outcome
Result: inactive
//
Compound: CCOC(=O)CC(SP(=S)(OC)OC)C(=O)OCC (stereo unspecified)
Reported Endpoint: outcome
Result: inactive
//
Compound: Nc1ccccc1C(=O)O
Reported Endpoint: outcome
Result: inactive
//
Compound: C[C@]1(O)CC[C@H]2[C@@H]3CCC4=CC(=O)CC[C@]4(C)[C@@]3(F)[C@@H](O)C[C@@]21C
Reported Endpoint: outcome
Result: inactive
//
Compound: C[C@]12CCC(=O)C=C1CC[C@@H]1[C@@H]2CC[C@]2(C)C(=O)CC[C@@H]12
Reported Endpoint: outcome
Result: inactive

---

- Condition Context: Ebola virus entry assay, green channel fluorescence
Entries with a potency or affinity are not part of this list. Calls of active or inactive are those of the source.
Reported Endpoint: outcome

Compound: O=C(Nc1ccc(Cl)c(Cl)c1)C1CC1
Result: inactive
//
Compound: Cc1ncc(CO)c(CN)c1O
Result: inactive
//
Compound: NS(=O)(=O)c1ccc(NC(=O)CCC(=O)O)cc1
Result: inactive
//
Compound: Cn1c(=O)c2[nH]c(Br)nc2n(C)c1=O
Result: inactive
//
Compound: C/C(=N\O)c1ccc(OCC(=O)N2CCCCC2)cc1
Result: inactive
//
Compound: NCCCC[C@H](N[C@@H](CCc1ccccc1)C(=O)O)C(=O)N1CCC[C@H]1C(=O)O
Result: inactive
//
Compound: O=C(Oc1ccccc1C(=O)O)c1ccccc1O
Result: inactive
//
Compound: CN(C)C(=O)Oc1ccc[n+](C)c1
Result: inactive
//
Compound: CCC(=O)c1c(O)cc(O)cc1O
Result: inactive
//
Compound: CCC1(CC)C(=O)C=CNC1=O
Result: inactive
//
Compound: CCN[C@H](C)Cc1cccc(C(F)(F)F)c1
Result: inactive
//
Compound: N=C(N)N1CCc2ccccc2C1
Result: inactive
//
Compound: CCOC(=O)c1ccc(O)c(O)c1
Result: inactive
//
Compound: CC[C@]12CCCN3CCc4c(n(c5ccccc45)[C@@](O)(C(=O)OC)C1)[C@@H]32
Result: inactive
//
Compound: Cc1cccc(C)c1NC(=O)c1cc(S(N)(=O)=O)c(Cl)cc1O
Result: inactive
//
Compound: CNC[C@H](O)c1cccc(O)c1
Result: inactive
//
Compound: COc1ccc2cc1Oc1cc3c(cc1OC)CC[N+](C)(C)[C@H]3Cc1ccc(cc1)Oc1c(OC)c(OC)cc3c1[C@@H](C2)[N+](C)(C)CC3
Result: inactive
//
Compound: CCCCCCCCCCCCSCCOCCO
Result: inactive
//
Compound: CC(=O)O[C@@H]1C(=O)O[C@@H]2[C@H]1OC(=O)[C@@H]2OC(C)=O
Result: inactive
//
Compound: NC(=O)CS(=O)C(c1ccccc1)c1ccccc1 (stereo not given)
Result: inactive
//
Compound: CC(C(=O)O)c1ccc(/C=C2\CCCCC2=O)cc1 (stereo not given)
Result: inactive
//
Compound: O=C(O)c1cc(=O)c2c(OCC(O)COc3cccc4oc(C(=O)O)cc(=O)c34)cccc2o1
Result: inactive
//
Compound: CO/N=C(/C(=O)N[C@@H]1C(=O)N2C(C(=O)OCOC(=O)C(C)(C)C)=C(C)CS[C@H]12)c1csc(N)n1
Result: inactive
//
Compound: Nc1nc(-c2ccccc2)c(Br)c(=O)[nH]1
Result: inactive
//
Compound: NC(N)=NC(=O)Cc1c(Cl)cccc1Cl
Result: inactive
//
Compound: CCN[C@H]1CN(CCCOC)S(=O)(=O)c2sc(S(N)(=O)=O)cc21
Result: inactive
//
Compound: c1ccc2sc(SN3CCOCC3)nc2c1
Result: inactive
//
Compound: Cc1cc(C)c(NC(=O)CN(CC(=O)O)CC(=O)O)c(C)c1Br
Result: inactive
//
Compound: Cc1ccccc1OCC(O)CO (stereo not given)
Result: inactive
//
Compound: COC(=O)c1cc(Cl)c(NC(C)=O)cc1OC
Result: inactive
//
Compound: CN(C)CCc1c[nH]c2cccc(OP(=O)(O)O)c12
Result: inactive
//
Compound: CC(=O)c1ccc(OCC(=O)N2CCCCC2)cc1
Result: inactive
//
Compound: CCOC(=O)[C@H](CCc1ccccc1)N[C@@H](C)C(=O)N1CCC[C@H]1C(=O)O
Result: inactive
//
Compound: C=CCN1C[C@H](C)N([C@H](c2ccc(C(=O)N(CC)CC)cc2)c2cccc(OC)c2)C[C@H]1C
Result: inactive
//
Compound: O=c1cc[nH]c(=O)[nH]1
Result: inactive
//
Compound: O=C1c2ccccc2CCc2ccccc21
Result: inactive
//
Compound: Oc1ccccc1
Result: inactive
//
Compound: Clc1cccc(Cl)c1NC1=NCCN1
Result: inactive
//
Compound: C[C@](N)(Cc1ccc(O)cc1)C(=O)O
Result: inactive
//
Compound: CCOCCn1c(C2CCN(CCc3ccc(C(C)(C)C(=O)O)cc3)CC2)nc2ccccc21
Result: inactive
//
Compound: O=C(O)CSCC(=O)NC1CCSC1=O (stereo not given)
Result: inactive
//
Compound: O=C(OCCN1CCOCC1)c1cccnc1Nc1cccc(C(F)(F)F)c1
Result: inactive
//
Compound: CCOC(=O)C1=C(C)NC(C)=C(C(=O)OC)C1c1cccc([N+](=O)[O-])c1 (stereo not given)
Result: inactive
//
Compound: NC(=O)NS(=O)(=O)c1ccc(N)cc1
Result: inactive
//
Compound: CC1CCc2c(N3CCC(O)CC3)c(F)cc3c(=O)c(C(=O)O)cn1c23 (stereo not given)
Result: inactive
//
Compound: COc1cc(C(=O)NC2CCCNC2)cc(OC)c1OC (stereo not given)
Result: inactive
//
Compound: NC(=O)NS(=O)(=O)c1ccc(Cl)cc1
Result: inactive
//
Compound: O=c1oc2ccccc2c(O)c1Cc1c(O)c2ccccc2oc1=O
Result: inactive
//
Compound: O=C(OOC(=O)c1ccccc1)c1ccccc1
Result: inactive
//
Compound: NC/C=C/C(=O)O
Result: inactive
